- target.or.system: HDAC6 enzyme (Homo sapiens)
- Construct: HDAC6 enzyme prepared by transducing full length HDAC6 gene into Sf-9 insect cells; GST; purchased SignalChem; host or cells: Sf-9 insect cells
- Sequence (Q9UBN7 whole entry): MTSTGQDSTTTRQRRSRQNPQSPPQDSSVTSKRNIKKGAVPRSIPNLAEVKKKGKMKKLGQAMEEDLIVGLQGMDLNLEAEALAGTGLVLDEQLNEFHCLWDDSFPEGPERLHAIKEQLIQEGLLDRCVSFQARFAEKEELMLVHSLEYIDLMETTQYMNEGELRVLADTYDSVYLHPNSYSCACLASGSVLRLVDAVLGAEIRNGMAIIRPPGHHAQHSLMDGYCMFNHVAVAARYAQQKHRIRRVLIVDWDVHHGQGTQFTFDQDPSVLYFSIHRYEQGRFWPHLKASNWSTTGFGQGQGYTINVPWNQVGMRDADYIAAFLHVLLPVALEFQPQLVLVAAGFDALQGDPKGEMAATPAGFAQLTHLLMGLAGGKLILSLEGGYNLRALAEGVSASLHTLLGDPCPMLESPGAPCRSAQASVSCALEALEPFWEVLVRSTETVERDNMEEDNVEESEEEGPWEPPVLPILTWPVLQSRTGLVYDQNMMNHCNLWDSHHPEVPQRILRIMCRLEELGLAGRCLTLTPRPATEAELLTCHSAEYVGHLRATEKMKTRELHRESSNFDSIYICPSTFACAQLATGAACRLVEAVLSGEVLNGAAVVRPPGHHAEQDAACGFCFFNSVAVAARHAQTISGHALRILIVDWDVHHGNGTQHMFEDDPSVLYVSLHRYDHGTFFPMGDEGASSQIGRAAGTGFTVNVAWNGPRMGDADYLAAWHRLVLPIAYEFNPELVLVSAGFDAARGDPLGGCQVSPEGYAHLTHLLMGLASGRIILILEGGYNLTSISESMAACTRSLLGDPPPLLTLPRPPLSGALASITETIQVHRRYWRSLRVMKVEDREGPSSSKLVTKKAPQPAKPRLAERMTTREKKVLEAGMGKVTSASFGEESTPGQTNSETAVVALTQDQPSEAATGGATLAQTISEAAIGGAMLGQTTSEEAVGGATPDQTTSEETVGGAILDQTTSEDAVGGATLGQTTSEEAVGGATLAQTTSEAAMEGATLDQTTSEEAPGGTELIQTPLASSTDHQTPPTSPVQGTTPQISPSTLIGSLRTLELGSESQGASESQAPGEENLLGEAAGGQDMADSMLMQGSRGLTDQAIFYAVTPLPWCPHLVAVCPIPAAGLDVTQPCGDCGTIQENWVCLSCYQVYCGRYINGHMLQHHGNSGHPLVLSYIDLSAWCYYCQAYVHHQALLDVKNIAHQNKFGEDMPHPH
- assay.protocol: HDAC6 enzyme inhibitory assay (HDAC-Glo I/II Assay kit)
- Assay type: biochemical
- condition.label: wells without enzyme = 100% inhibition, read-out: HDAC6 inhibitory rate (%) (10 μM)
Listed next: entries and their corresponding inhibition at 10 µM.

# compound, inhibition at 10 µM (%)
data = [
    ("O=C1c2cc(-c3nnc(C(F)F)o3)ccc2CN1[C@H](c1ccccc1C(F)(F)F)[C@@H](O)c1ccccn1 (racemic)", 101),
    ("O=C1c2cc(-c3nnc(C(F)F)o3)ccc2CN1[C@H](c1ccccc1)[C@@H](O)C1CCC(F)(F)CC1 (racemic)", 100),
    ("O=C1c2cc(-c3nnc(C(F)F)o3)ccc2CN1[C@H](c1cccc(F)n1)[C@@H](O)c1cccc(F)n1 (single isomer, unassigned)", 101),
    ("O=C1c2cc(-c3nnc(C(F)F)o3)ccc2CN1[C@H](c1ccc(F)cc1)[C@@H](O)C1CC1 (racemic)", 99),
    ("O=C1c2cc(-c3nnc(C(F)F)o3)ccc2CN1[C@H](c1ccccc1)[C@H](O)c1ccccc1F (racemic)", 100),
    ("O=C1c2cc(-c3nnc(C(F)F)o3)ccc2CN1[C@H](c1ccccc1)[C@@H](O)c1ccccc1", 99),
    ("O=C1c2cc(-c3nnc(C(F)F)o3)ccc2CN1[C@H](c1ccc(C(F)(F)F)nc1)[C@@H](O)c1ccccc1 (racemic)", 100),
    ("O=C1c2cc(-c3nnc(C(F)F)o3)ccc2CN1[C@H](C1CC1)[C@@H](O)c1ccc(C(F)(F)F)nc1 (single isomer, unassigned)", 100),
    ("O=C1c2cc(-c3nnc(C(F)F)o3)ccc2CN1[C@H](c1ccc(F)cn1)[C@@H](O)c1cccc(F)n1 (single isomer, unassigned)", 100),
    ("O=C1c2cc(-c3nnc(C(F)F)o3)ccc2CN1[C@H](c1ccccn1)[C@@H](O)c1ccc(F)cc1 (single isomer, unassigned)", 101),
    ("O=C1c2cc(-c3nnc(C(F)F)o3)ccc2CN1[C@H](c1cccc(F)n1)[C@@H](O)c1ccc(F)cn1 (relative stereo) [Example 125]", 101),
    ("O=C1c2cc(-c3nnc(C(F)F)o3)ccc2CN1[C@@H](c1ccccn1)[C@H](O)c1ccccn1", 100),
    ("O=C1c2cc(-c3nnc(C(F)F)o3)ccc2CN1[C@H](c1cnccn1)[C@@H](O)c1ccccc1 (single isomer, unassigned)", 99),
    ("O=C1c2cc(-c3nnc(C(F)F)o3)ccc2CN1[C@H](c1cccnn1)[C@@H](O)c1ccc(Cl)cc1 (relative stereo) [Example 110]", 100),
    ("O=C1c2cc(-c3nnc(C(F)F)o3)ccc2CN1[C@H](c1cccnn1)[C@@H](O)c1ccc(Cl)cc1 (single isomer, unassigned) [Example 111]", 99),
    ("O=C1c2cc(-c3nnc(C(F)F)o3)ccc2CN1[C@H](c1ncccn1)[C@H](O)c1cccc(F)c1 (racemic)", 99),
    ("O=C1c2cc(-c3nnc(C(F)F)o3)ccc2CN1[C@H](C1CC1)[C@@H](O)c1ccc(F)nc1", 100),
    ("O=C1c2cc(-c3nnc(C(F)F)o3)ccc2CN1[C@@H](c1ccccn1)[C@H](O)c1ccc(F)cn1", 100),
    ("O=C1c2cc(-c3nnc(C(F)F)o3)ccc2CN1[C@@H](c1ccccn1)[C@H](O)c1cccc(F)n1", 99),
    ("O=C1c2cc(-c3nnc(C(F)F)o3)ccc2CN1[C@H](c1ccc(C(F)(F)F)cc1)[C@@H](O)c1ccccn1 (racemic)", 99),
    ("O=C1c2cc(-c3nnc(C(F)F)o3)ccc2CN1[C@H](c1cnccn1)[C@@H](O)c1ccc(F)cc1 (single isomer, unassigned)", 100),
    ("O=C1c2cc(-c3nnc(C(F)F)o3)ccc2CN1[C@H](c1ccc(F)cc1)[C@H](O)c1ccc(C(F)(F)F)nc1 (racemic)", 100),
    ("O=C1c2cc(-c3nnc(C(F)F)o3)ccc2CN1[C@H](c1cccc(F)n1)[C@@H](O)c1ccc(F)cn1 (single isomer, unassigned) [Example 126]", 101),
    ("O=C1c2cc(-c3nnc(C(F)F)o3)ccc2CN1[C@H](c1cccc(F)c1)[C@@H](O)c1ccc(F)cc1 (racemic)", 100),
    ("O=C1c2cc(-c3nnc(C(F)F)o3)ccc2CN1[C@H](c1ccccn1)[C@@H](O)c1ccccn1", 101),
]
